- Tested on: mice
- Protocol: In Vivo Antagonism of Clonidine-Induced Anti-Nociception (phenyl-p-quinone writhing)
- Experimental Context: Mus musculus, po, read-out: % A, Antagonism of Clonidine Analgesia; 30 mg/kg p.o.
- Protocol: The α2 -adrenergic antagonist activity of the compounds of the invention was determined by three screening methods, described as follows: In Vivo Antagonism of Clonidine-Induced Anti-Nociception The intraperitoneal administration of phenyl-p-quinone (PPQ) to mice elicits a nociceptive response which consists of abdominal writhing and extension of the hind limbs. […] The number of mice that writhed at least three times during the five minute observation period was counted. […]
Measurement Name: responders at 30 mg/kg (%)
State just the number; it will be interpreted in %.

Report responders at 30 mg/kg, nothing else, for this compound: COCC1(C2=NCCN2)Cc2ccccc2N1C (stereo not shown) 70

Report responders at 30 mg/kg, nothing else, for this compound: CC(C)N(CC1(C2=NCCN2)Cc2ccccc2N1C)C(C)C (stereo not shown) 50

Report responders at 30 mg/kg, nothing else, for this compound: `Cn1c(CC2=NCCN2)cc2ccccc21` 10

Report responders at 30 mg/kg, nothing else, for this compound: CSCC1(C2=NCCN2)Cc2ccccc2N1C (stereo not shown) 90
